Where these numbers come from: patent US20210330611A1

Below, each entry is listed alongside its reported LPS % cell toxicity.
Tested on: primary rat microglia
Conditions: rat
Form entry: value (%) — number only.

Solved cases below.
{"columns": ["molecule", "LPS % cell toxicity [%]"],
 "data": [
  ["CN(C)CCC=C1c2ccccc2CCc2ccccc21", 1],
  ["CC(COc1ccccc1)N(CCCl)Cc1ccccc1 (stereo not drawn)", 0],
  ["C[C@H]1[C@H](NC(=O)/C(=N\\OC(C)(C)C(=O)O)c2csc(N)n2)C(=O)N1S(=O)(=O)O", 0],
  ["O=C1C[C@@H]2OCC=C3CN4CC[C@]56c7ccccc7N1[C@H]5[C@H]2[C@H]3C[C@H]46", 0],
  ["NC(=O)c1ncn([C@@H]2O[C@H](CO)[C@@H](O)[C@H]2O)n1 [Ribavirin, reference compound]", 3],
  ["CS(=O)(=O)CCNCc1ccc(-c2ccc3ncnc(Nc4ccc(OCc5cccc(F)c5)c(Cl)c4)c3c2)o1", 0]
]}

// lookup LPS % cell toxicity for `O=C(O)CCCc1ccc(N(CCCl)CCCl)cc1`
0

// lookup LPS % cell toxicity for `Cc1c(OCC(F)(F)F)ccnc1C[S@@+]([O-])c1nc2ccccc2[nH]1`
0

// lookup LPS % cell toxicity for `Clc1ccccc1C(c1ccccc1)(c1ccccc1)n1ccnc1`
0

###

System: primary rat microglia
Assay: Cell toxicity (dead cells, size <150 μm2) in coated fibrin (cFib) assay;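 also: share of dead cells sized under 150 µm2 at 10 µM in fibrin-stimulated microglia HTS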
Details: primary microglia HTS, fibrin stimulation; decreased size (<150 μm^2) as marker of toxicity
Below, each entry is listed alongside its reported Fibrin % cell toxicity.
Form entry: value (%) — number only.

Solved cases below.
{"columns": ["molecule", "attributeMeasured", "valueUnit", "valueReported"],
 "data": [
  ["CC(=O)OCC(=O)[C@@]1(O)CC[C@H]2[C@@H]3CCC4=CC(=O)C=C[C@]4(C)[C@H]3[C@@H](O)C[C@@]21C [Prednisolone acetate, reference compound]", "Fibrin % cell toxicity", "%", 4],
  ["CCC(=O)OCC(=O)[C@@]1(OC(=O)CC)[C@H](C)C[C@H]2[C@H]3[C@H]([C@@H](O)C[C@@]21C)[C@@]1(C)C=CC(=O)C=C1C[C@H]3Cl [Alclometazone dipropionate, reference compound]", "Fibrin % cell toxicity", "%", 2]
]}

API: value(readout= Fibrin % cell toxicity, system= primary rat microglia, query= Cc1cc(NC(=O)C2=C(O)c3ccccc3S(=O)(=O)N2C)no1 [Isoxicam, reference compound] )
1

API: value(readout= Fibrin % cell toxicity, system= primary rat microglia, query= CSc1ccc2c(c1)C(N1CCN(C)CC1)Cc1ccccc1S2 (centres unmarked) )
1

API: value(readout= Fibrin % cell toxicity, system= primary rat microglia, query= O=P(O)(O)C(O)(Cc1cccnc1)P(=O)(O)O [Risedronate sodium, reference compound] )
2

###

Tested on: primary rat microglia
Details: rat
Below, each entry is listed alongside its reported LPS % cell toxicity.
Form entry: value (%) — number only.

Solved cases below.
{"columns": ["molecule", "LPS % cell toxicity / %"],
 "data": [
  ["CC(C)=CC1C(C(=O)OCc2cccc(Oc3ccccc3)c2)C1(C)C (stereo not drawn) [Phenothrin]", 0],
  ["Clc1ccccc1CN1CCc2sccc2C1 [Ticlopidine]", 0],
  ["CO/N=C(\\C(=O)N[C@@H]1C(=O)N2C(C(=O)O)=C(COC(N)=O)CS[C@H]12)c1ccco1 [Cefuroxime]", 0],
  ["CCc1oc2ccccc2c1C(=O)c1cc(Br)c(O)c(Br)c1 [Benzbromarone]", 1],
  ["CN(C)/N=N/c1[nH]cnc1C(N)=O [Dacarbazine]", 0]
]}

// lookup LPS % cell toxicity for CCN1C[C@]2(COC)[C@H](O)C[C@H](OC)[C@@]34[C@@H]5C[C@@]6(O)[C@H](OC(=O)c7ccccc7)[C@@H]5[C@@](OC(C)=O)([C@@H]([C@H](OC)[C@H]23)[C@@H]14)[C@@H](O)[C@@H]6OC [Aconitine]
0

// lookup LPS % cell toxicity for CCC(=O)OCC(=O)[C@@]1(OC(=O)CC)[C@@H](C)C[C@H]2[C@@H]3CCC4=CC(=O)C=C[C@]4(C)[C@@]3(Cl)[C@@H](O)C[C@@]21C [Beclomethasone Dipropionate]
1

// lookup LPS % cell toxicity for C=CC[N+]1([C@H]2C[C@H]3[C@@H]4CC[C@H]5C[C@H](O)[C@@H](N6CCOCC6)C[C@]5(C)[C@H]4CC[C@]3(C)[C@H]2OC(C)=O)CCCC1 [Rocuronium]
0

// lookup LPS % cell toxicity for CN(C)CCCN1c2ccccc2CCc2ccc(Cl)cc21 [Clomipramine]
1

// lookup LPS % cell toxicity for Cn1cc[nH]c1=S [Methimazole]
0

// lookup LPS % cell toxicity for C=CCOC(Cn1ccnc1)c1ccc(Cl)cc1Cl (stereo not drawn) [Enilconazole]
1

// lookup LPS % cell toxicity for CC[C@H]1OC(=O)[C@H](C)[C@@H](O[C@H]2C[C@@](C)(OC)[C@@H](O)[C@H](C)O2)[C@H](C)[C@@H](O[C@@H]2O[C@H](C)C[C@H](N(C)C)[C@H]2O)[C@](C)(O)C[C@@H](C)CN(C)[C@H](C)[C@@H](O)[C@]1(C)O [Azithromycin]
0

// lookup LPS % cell toxicity for C=C(c1ccc(C(=O)O)cc1)c1cc2c(cc1C)C(C)(C)CCC2(C)C [Bexarotene]
1

// lookup LPS % cell toxicity for Cc1[nH]c(=O)c(C#N)cc1-c1ccncc1 [Milrinone]
0

// lookup LPS % cell toxicity for Nc1ccc(S(=O)(=O)Nc2ncccn2)cc1 [Sulfadiazine]
0

###

Test system: LPS-induced microglia activation
Test: Image-based assay of LPS-induced microglia activation (HTS and dose response)
Format: cell-based, rat
Conditions: Rattus norvegicus, Microglia, 48 h, primary microglia HTS, LPS stimulation; increased cell size (>800 μm^2) as marker of activation; read-out: LPS % inhibition
Below, each entry is listed alongside its reported inhibition at 10 µM.
Form entry: value (%) — number only.

{"columns": ["compound", "valueUnit", "inhibition at 10 µM"],
 "data": [
  ["CCN(CC)C(=S)SSC(=S)N(CC)CC [Disulfiram]", "%", 131]
]}

Would you kindly look at the next entry?
// lookup inhibition at 10 µM for Cc1cc(-c2ccccc2)nnc1NCCN1CCOCC1 [Minaprine]
10

###

System: primary rat microglia
Experiment: Cell toxicity (dead cells, size <150 μm2) in LPS assay
Details: primary HTS, 10 μM, LPS assay, dead cells size <150 μm2
attributeMeasured: LPS % cell toxicity

Solved cases below.
{"columns": ["molecule", "attributeMeasured", "valueReported"],
 "data": [
  ["O=C(O)c1cc(-c2ccccc2)nc2ccccc12", "LPS % cell toxicity", "0%"],
  ["Oc1ccc(Cl)c2c1CCC2", "LPS % cell toxicity", "0%"]
]}

// lookup LPS % cell toxicity for `NC(=O)c1cc[n+](CC2=C(C(=O)[O-])N3C(=O)[C@@H](NC(=O)Cc4cccs4)[C@H]3SC2)cc1`
0%

// lookup LPS % cell toxicity for CC(C)(C)C(=O)C(Oc1ccc(Cl)cc1)n1ccnc1 (stereo not shown)
0%

###

Test system: fibrin- and LPS-induced microglia activation
Assay: cells
Format: cell-based, rat
Conditions: Rattus norvegicus, Microglia; HTS hit classification; read-out: Hit
Structures can show the parent of a compound that is named as a salt.
Below, each entry is listed alongside its reported inhibition at 10 µM.

{"columns": ["compound", "system", "valueReported"],
 "data": [
  ["CCOC(=O)O[C@]1(C(=O)COC(=O)CC)CC[C@H]2[C@@H]3CCC4=CC(=O)C=C[C@]4(C)[C@H]3[C@@H](O)C[C@@]21C [Prednicarbate, reference compound]", "fibrin- and LPS-induced microglia activation", "> 50%"],
  ["c1ccc2[nH]c(-c3cscn3)nc2c1 [Thiabendazole, reference compound]", "fibrin- and LPS-induced microglia activation", "> 50%"]
]}

Would you kindly look at the next entry?
// lookup inhibition at 10 µM for COc1ccccc1N1CCN(CC(O)COc2cccc3ccccc23)CC1 (stereo not drawn) [Naftopidil dihydrochloride, reference compound]
> 50%

###

Below, each entry is listed alongside its reported inhibition at 10 µM.
System: fibrin-induced microglia activation
Test: Image-based assay of fibrin-induced microglia activation (HTS and dose response)
Type: cell-based, rat
Conditions: Rattus norvegicus, Microglia, read-out: Fibrin % inhibition
Form entry: value (%) — number only.

// lookup inhibition at 10 µM for CC(N)C(O)c1ccccc1 (stereo not drawn) [Phenylpropanolamine]
-2

// lookup inhibition at 10 µM for Clc1cccc(Cl)c1N=C1NCCN1 [Clonidine]
-22

// lookup inhibition at 10 µM for CCCN(CCC)CCc1cccc2c1CC(=O)N2 [Ropinirole]
-26

// lookup inhibition at 10 µM for O=C1NS(=O)(=O)c2ccccc21 [Saccharin]
-8

// lookup inhibition at 10 µM for CN(C)CCC=C1c2ccccc2C=Cc2ccccc21 [Cyclobenzaprine]
-29

// lookup inhibition at 10 µM for CCOC(=O)[C@H](CCc1ccccc1)N[C@@H](C)C(=O)N1[C@H](C(=O)O)C[C@H]2CCCC[C@@H]21 [Trandolapril]
-5

// lookup inhibition at 10 µM for CCCCOCCOCCOCc1cc2c(cc1CCC)OCO2 [Piperonyl Butoxide]
0

// lookup inhibition at 10 µM for NCCNCCNCCN [Triethylenetetramine]
3

// lookup inhibition at 10 µM for NC[C@@H]1CC[C@@H](N)[C@@H](O[C@H]2[C@H](O)[C@@H](O[C@H]3O[C@H](CO)[C@@H](O)[C@H](N)[C@H]3O)[C@H](N)C[C@@H]2N)O1 [Dibekacin]
10
